Where do the numbers come from? From paper PMC4072508.

system-tested: T1, Mcl-1, Q07820
T1 chain: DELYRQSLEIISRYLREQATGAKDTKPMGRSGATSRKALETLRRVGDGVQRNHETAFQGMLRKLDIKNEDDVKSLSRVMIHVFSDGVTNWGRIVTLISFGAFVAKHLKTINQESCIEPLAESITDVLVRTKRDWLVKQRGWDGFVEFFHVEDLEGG
procedure-text: peptide SPOT array, c-Myc-tagged receptor at 1 uM or 100 nM, anti-c-Myc-Cy3
measured-parameter: SPOT signal as a fraction of Bim BH3's signal on the same receptor and array

Consider the reported SPOT signal as a fraction of Bim BH3's signal on the same receptor and array for these binders:
INSERT INTO measurements (binder, reported_value) VALUES
  ('SRQPRDFGDSDARGGKGFLRGVVGGV [VPS13C]', 0.17),
  ('ITVVGDVGGRIAIILDDIIDDVESFV [PRPSAP1]', 0.02),
  ('RIEMWISILELNELGEYAAVELHQAK [KIF13A]', 0.02),
  ('DEHISYVATKVCHLLDQLEGVNTPRQ [EXOC5]', 0.02),
  ('VLSRIEAGRSDKSVADEFGISKSTFY [TIGD7_3eA]', 0.02);

[A] DQEEACASRQLHSLASFSTVTARRNP [INCA1]
[B] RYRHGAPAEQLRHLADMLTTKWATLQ [PLEKHH1]
[C] CILNSFYGYVMRKGARWYSMEMAGIV [POLE]
Q) Arrange these 3 binders in increasing order of SPOT signal as a fraction of Bim BH3's signal on the same receptor and array. # list labels per requested ordering
A) C, A, B
(C: 0.12, A: 0.23, B: 0.41)
